Just for reference, PubChem BioAssay (NCI) is where these values come from.

system: U251 CNS; experiment: NCI-60 one-dose screen, 48 h; settings: 10 µM unless noted
About 83,000 compounds went through this panel and 20% of them were active in at least one assay; those are over-represented in the sample as a whole. Activity calls are given as the source filed them. The calls were made as follows: active = growth percent below 10; inactive = the rest.
Give one outcome, nothing more. List: label 1 = active, label 0 = inactive

• Clc1cn2cc(-c3ccc(Cl)c(Cl)c3Cl)nc2s1 = label 0
• C=CCn1c(C)nc2cc(Nc3nc(Nc4ccc5nc(C)n(CC=C)c5c4)nc4ccccc34)ccc21 = label 0
• C=CCn1c(SCC(=O)Nc2ccc(C(=O)/C=C/c3ccc(Cl)cc3)cc2)nnc1-c1ccc(Cl)cc1 = label 0
• CNCc1ccccc1CN(CC(=O)Nc1ccc2c(c1)CC1(C2)C(=O)Nc2ncccc21)C(=O)C(C)(C)C (configuration not stated) = label 0
• NC(=O)Nc1ccc2ncnc(Nc3cccc(O)c3)c2c1 = label 0
• COc1ccc(C(=O)C(C#N)c2cc(OC)c(OC)c(OC)c2)cc1 (configuration not stated) = label 0

stdin: Test call for this molecule, please: Nc1cccc(S(=O)(=O)c2cccc(N)c2)c1
stdout: label 0

stdin: Kindly provide the recorded test outcome for the following molecule: Cc1cc(C)c2c(n1)sc1c(Nc3ccc(O)cc3)ncnc12
stdout: label 0

stdin: Hi, do you know how O=c1c2sc3ncc(Cl)cc3c2nnn1-c1cccc(Cl)c1 came out in this test?
stdout: label 0
